Catalogue of molecules with associated AUC(0-t)
# assay.details: AUClast in Swiss albino mouse at 3 mg/kg, iv
# Assay type: ADME, organism-based
# Set-up: time 0 - last, dose 3 mg/kg, route intravenous
# assay.context: plasma

# smiles.repr, AUC(0-t)
measured = [
    ("CN1CCN(S(=O)(=O)c2ccc(-c3cn([C@H]4CC[C@H](O)CC4)c4nc(NCCC5CC5)ncc34)c(F)c2)CC1", "1 µM·h"),
    ("CCCCNc1ncc2c(-c3ccc(S(=O)(=O)N4CCOCC4)cc3)cn([C@H]3CC[C@H](O)CC3)c2n1", "1.4 µM·h"),
    ("CCCCNc1ncc2c(-c3ccc(S(=O)(=O)N4CCOCC4)cc3)nn([C@H]3CC[C@H](O)CC3)c2n1", "3.3 µM·h"),
    ("CCCCNc1ncc2c(-c3ccc(CN4CCN(C)CC4)cc3)cn([C@H]3CC[C@H](O)CC3)c2n1", "9.2 µM·h"),
    ("CN1CCN(Cc2ccc(-c3cn([C@H]4CC[C@H](O)CC4)c4nc(NCCC5CC5)ncc34)cc2)CC1", "12 µM·h"),
]
